B1: library; numbered along this chain (parent)
chain: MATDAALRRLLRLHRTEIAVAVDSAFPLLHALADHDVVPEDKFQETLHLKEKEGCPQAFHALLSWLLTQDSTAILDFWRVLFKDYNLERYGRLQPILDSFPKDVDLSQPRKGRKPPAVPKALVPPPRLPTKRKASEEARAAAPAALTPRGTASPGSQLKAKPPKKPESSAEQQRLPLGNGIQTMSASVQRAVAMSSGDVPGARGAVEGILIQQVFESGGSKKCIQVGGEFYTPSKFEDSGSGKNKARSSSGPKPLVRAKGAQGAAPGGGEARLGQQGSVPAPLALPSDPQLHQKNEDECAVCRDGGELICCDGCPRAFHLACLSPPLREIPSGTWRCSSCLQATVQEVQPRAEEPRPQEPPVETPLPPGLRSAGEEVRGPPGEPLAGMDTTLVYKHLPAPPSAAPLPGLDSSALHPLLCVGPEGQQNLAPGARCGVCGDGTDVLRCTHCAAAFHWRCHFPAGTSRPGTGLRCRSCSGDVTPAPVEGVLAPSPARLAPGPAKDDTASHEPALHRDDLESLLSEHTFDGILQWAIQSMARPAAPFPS

variants of: B1; assay: AIRE transcriptional activation functional score (insulin promoter-GFP; nonsense median 0, synonymous median 1) (normalised score); higher = higher AIRE activity (more reporter activation); settings: with insulin promoter-GFP reporter in HEK293
Readings of AIRE transcriptional activation functional score for the listed variants
Answer with the value's number alone.

# input variant: A451G ; wanted: its AIRE transcriptional activation functional score
0.686

Attribution: the supplement of paper PMC12667976
